// data source = PubChem BioAssay AID1159580

Assay: chemical genetic growth profiling, strain panel (AID 1159580);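 further: tested at 20 µM; growth read once vehicle control cultures reached saturation at 30 °C; 1 = growth at the plate median or of vehicle wells; lower values mean less growth of the strain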
Conditions: S. cerevisiae deletion strains, growth OD, locus YKR091W, strain srl3, active compounds read low
Among all 5,500 compounds or so, about 2,000 (36%) were called active. Roughly 18% stayed inconclusive and do not appear here. This is one part of the list. Where a SMILES comes first, the peptide text is derived from it.

{"columns": ["compound", "normalized growth"],
 "data": [
  ["CC1(C)C(=O)C=C[C@@]2(C)C1C=C[C@]1(C)C2CC[C@@]2(C)[C@H](c3ccoc3)OC(=O)C3OC321 (some centres undefined)", 0.992],
  ["CC1(C)O[C@H]2CC(=O)OC[C@]23[C@H]2CC[C@@]4(C)[C@H](c5ccoc5)OC(=O)[C@H]5O[C@]54[C@]2(C)C(=O)C[C@@H]13", 0.98],
  ["C[C@]12CCC3c4ccc(O)cc4CCC3C1CC[C@@H]2O (some centres undefined)", 1.02],
  ["COC(=O)c1c(C)cc(OC)cc1O", 0.974],
  ["CCN(Cc1ccncc1)C(=O)C(CO)c1ccccc1 (centres undefined)", 1.02],
  ["Cc1[nH]ccc2c1[nH]c1cc(=O)ccc12", 0.992],
  ["CCOC(=O)c1c(C)cc(OC)cc1O", 0.971],
  ["COC(=O)[C@H](Cc1ccccc1)NC(=O)[C@@H](N)CC(=O)O (H-Asp-Phe-OMe)", 1.02],
  ["CCC(=O)c1c(O)cc(O)cc1O", 0.988],
  ["CC1(C)C2CC(=O)[C@]3(C)C(CC[C@@]4(C)[C@H](c5ccoc5)OC(=O)C5OC543)[C@@]2(C)[C@@H](O)C[C@H]1O (some centres undefined)", 1.01],
  ["CC(C)(C)NCC(O)c1cc(O)cc(O)c1 (centres undefined)", 0.978],
  ["COc1ccc2c(c1)CCC1C2CCC2(C)C1C[C@@H](O)C2O (some centres undefined)", 0.997],
  ["CN1C[C@H](C(=O)N[C@]2(C)O[C@@]3(O)[C@@H]4CCCN4C(=O)[C@H](Cc4ccccc4)N3C2=O)C[C@@H]2c3cccc4[nH]cc(c34)C[C@H]21", 0.983],
  ["CC(=O)O[C@]1(C(C)=O)CCC2C3C=C(Cl)C4=CC(=O)[C@@H]5C[C@@H]5[C@]4(C)C3CC[C@@]21C (some centres undefined)", 1.01]
]}
